Each recorded value in this set is attributed to ChEMBL document CHEMBL4706676.

# System: LNCaP
# ASSAY METHOD TEXT: Antiproliferative activity against human LNCaP cells assessed as reduction in cell viability
# Type: functional, cell-based
# ASSAY CONTEXT: Homo sapiens, LNCaP
RESULT TYPE: IC50

# example entries with known answers
# input # lookup: IC50 of CC(O)(C[S+]([O-])c1ccccn1)C(=O)Nc1ccc(C#N)c(C(F)(F)F)c1 (stereo unspecified)
# output > 100 µM

# input Let us now turn to CC(O)(C[S+]([O-])c1ccc(OC(F)(F)F)cc1)C(=O)Nc1ccc(C#N)c(C(F)(F)F)c1 (stereo unspecified)
# output 36.2 µM

# input Let us now turn to CC(O)(C[S+]([O-])c1ccc(C(F)(F)F)cn1)C(=O)Nc1ccc(C#N)c(C(F)(F)F)c1 (stereo in doubt; form 1)
# output 95.4 µM

# input Let us now turn to CC(O)(C[S+]([O-])c1ccc(C(F)(F)F)cc1)C(=O)Nc1ccc([N+](=O)[O-])cc1C(F)(F)F (stereo unspecified)
# output 25.6 µM

# input Let us now turn to CC(O)(C[S+]([O-])c1ccccc1OC(F)(F)F)C(=O)Nc1ccc([N+](=O)[O-])cc1C(F)(F)F (stereo unspecified)
# output 9.09 µM

Consider the record given below.
# input # lookup: IC50 of CC(O)(C[S+]([O-])c1ccc(F)cc1F)C(=O)Nc1ccc([N+](=O)[O-])cc1C(F)(F)F (stereo unspecified)
# output 24.4 µM
